- Test system: SK-OV-3 ovarian
- method: NCI-60 one-dose screen, 48 h (100 = growth as untreated, 0 = no growth, -100 = all killed)
- details: 10 µM unless noted
The panel holds about 83,000 compounds, 20% with a hit somewhere; the sample as a whole holds those more often.
# if value of growth reaches 60%, tag TRUE; if it stays below, tag FALSE

compound: O=C(CSc1nc2sc3c(c2c(=O)n1-c1ccc(Cl)cc1)CCCC3)NNC(=O)Nc1ccc(Cl)c(C(F)(F)F)c1
classLabel: TRUE
--
compound: CNC(=O)c1cc(-c2ccc(NC(=O)Nc3ccc(N4CCOCC4)c(C(F)(F)F)c3)cc2)nc2cccnc12
classLabel: TRUE
--
compound: O=C1Nc2ccccc2Oc2ccc(S(=O)(=O)CC3CO3)cc21 (stereo not given)
classLabel: TRUE

Exercise: # bool: growth of "CCC/C=C/C=C/C(=O)N[C@@H](Cc1cc(F)cc(F)c1)C(=O)N[C@@H]1C(=O)N2CCC[C@H]2C(=O)N2CCCC[C@H]2C(=O)N[C@@H](C)C(=O)N2C[C@H](C)C[C@H]2C(=O)O[C@H]1C" >= 60%
Solution: FALSE

====

- System: SK-MEL-2 melanoma
- method: NCI-60 one-dose screen, 48 h (100 = growth as untreated, 0 = no growth, -100 = all killed)
- details: 10 µM unless noted
This is part of a sample that, as a whole, favours compounds with a hit. Of some 83,000 tested, about 20% had one in any assay.
recordedMetric: growth (%)
Answers are plain numbers, in %.

compound: Cc1cccc(/C=C/c2nn3c(-c4ccco4)nnc3s2)c1
unitsLabel: %
growth: 112

State the recorded growth for every item in the following list.
1. COc1ccc(-c2nc3ccc(-c4nnc(SCC(=O)Nc5ccc(C(=O)/C=C/c6ccc(Cl)cc6)cc5)o4)cc3[nH]2)cc1OC
2. COc1ccc(-n2c(SCC(=O)Nc3ccc(-c4nc5ccccc5[nH]4)cc3)nc3ccccc3c2=O)cc1
3. COc1cc2nc(-c3ccc(C)cc3)cc(OCCCNCC3CCCO3)c2cc1OC (centres undefined)
4. COc1ccc(/C=N/NC(=O)c2[nH]c3ccc(Br)cc3c2-c2ccccc2)o1
5. COc1ccc(CNS(=O)(=O)/N=C2\NC(=O)NC2=C(Cl)Cl)cc1
6. N#Cc1c(-c2ccc(Cl)cc2)nc2c(-c3ccccc3)c(Nc3ccccc3)nn2c1N

Solution:
1: 112; 2: 97.7; 3: 112; 4: -13; 5: 29.1; 6: 96

State the recorded growth for every item in the following list.
1. CS(=O)(=O)c1ccc(-c2nc3ccccn3c2/C=N/Nc2nc(-c3ccc(Br)cc3)cs2)cc1
2. Fc1ccc(-c2cc3nc(C(Cl)Cl)nc(-c4ccccc4)n3n2)cc1

Solution:
[113, 53.5]

====

So I've got a bunch of compounds here, and I need their growth values.
- Tested on: HCT-15 colon
- method: NCI-60 one-dose screen, 48 h (100 = growth as untreated, 0 = no growth, -100 = all killed)
- details: 10 µM unless noted
Compounds without any hit were thinned out: in the full panel of roughly 83,000, 20% have a hit.
One number for each entry, in %.

Example results:
compound: Clc1ccc2c(NCCCN3CCOCC3)c3oc4ccccc4c3nc2c1
growth, %: 21.6
//
compound: Cn1ccnc1C(=O)/C=C/c1ccc(NC(=O)Nc2ccc(F)cc2)cc1
growth, %: 21
//
compound: CSc1ccc2c(c1)N(C(=O)/C(C#N)=C/c1c[nH]c3ccccc13)c1ccccc1S2
growth, %: 27.3

State the recorded growth for every item in the following list.
1. C[C@@H](Nc1c(C#N)cnc2ccc(-c3cnc(N)nc3)cc12)c1ccccc1
2. COc1ccc(/C=N/NC(=O)c2[nH]c3ccc(Br)cc3c2-c2ccccc2)s1
3. O=C(CSc1nnc(-c2ccc3nc(-c4ccc(Cl)cc4)[nH]c3c2)o1)Nc1ccc(C(=O)/C=C/c2ccc(Cl)cc2)cc1
4. CC(C)(C)Nc1nc2c(OCCc3ccccc3)cccn2c1-c1ccc(Cl)cc1
5. Clc1ccc2c(NCCCN3CCOCC3)c3oc4ccc(Cl)cc4c3nc2c1
6. C#Cc1nc(C2=C(C)C(=O)/C(=N/OC(C)=O)C2)cs1

Solution:
1: 9.79; 2: 12; 3: 89.8; 4: 3.86; 5: 4.4; 6: 88.1

Exercise: Recorded growth of COC(=O)C(C)NS(=O)(=O)/N=C1\NC(=O)NC1=C(Cl)Cl (stereo not given) , please.
Solution: 102

The origin of these recorded values is PubChem BioAssay (NCI).
